# assay-method-text: in vivo
# study-conditions: both, Kunming, mouse, po

{"columns": ["compound-structure", "LD50 at 14 days"],
 "data": [
  ["CCCCc1nc(Cl)c(C(=O)OCOC(=O)OC(C)(C)C)n1Cc1ccc(-c2ccccc2-c2nnn[nH]2)cc1", "> 10000 mg/kg"],
  ["CCCCc1nc(Cl)c(C(=O)OCOC(=O)OCC)n1Cc1ccc(-c2ccccc2-c2nnn[nH]2)cc1", "> 10000 mg/kg"],
  ["CCCCc1nc(Cl)c(C(=O)OCOC(=O)OC(C)C)n1Cc1ccc(-c2ccccc2-c2nnn[nH]2)cc1", "> 10000 mg/kg"],
  ["CCCCc1nc(Cl)c(CO)n1Cc1ccc(-c2ccccc2-c2nn[nH]n2)cc1", "2000 mg/kg"]
]}
